- Test system: SR
- Assay Procedure: NCI tumour cell line growth inhibition, 48 h
The source made the active and inactive calls. No stated cut-off is given here; in the data, active = GI50 up to about 1.1 µM and inactive = higher.
Tick one outcome: active, inactive

For this compound, state the assay outcome: O=c1[nH]nc(Cc2ccccc2)n1/N=C/c1ccccc1Cl inactive

In this assay, the call recorded for N#CCN(Cc1ccccc1)[C@@H]1CCC[C@]1(O)C#Cc1ccc2c(c1)OCO2 was what? inactive

Assay outcome for COC(=O)c1cc2c3c(ccc2[nH]1)N(C(=O)c1cc2cc(OC)c(OC)c(OC)c2[nH]1)CC3CCl (stereo unspecified) : what was it? active

What outcome does the record of this test show for N#C/C(=C\c1cc(Br)c(O)c(Br)c1)c1cccnc1 ? inactive

Outcome logged for CN(C)/C=C(\C(=O)c1ccccc1)n1nc(-c2ccccc2)cc1-c1ccccc1 in this assay: inactive

Now consider the entry below.
What did the test return for Cc1ccc2nc(-c3ccc(N)c(Br)c3)sc2c1 ? inactive
